- protocol: Solubility in pH 6.8 buffer
- Type: physicochemical

- smiles.structure: "COC(=O)[C@H](CN(C)C)N(C)C(=O)c1c(C)cc(-c2cccc(NS(=O)(=O)c3cc(C)c(Cl)cc3C)c2)cc1C"
  solubility: "< 4 µM"
- smiles.structure: "COC(=O)[C@H](C)N(C)C(=O)c1c(C)cc(-c2cccc(NS(=O)(=O)c3cc(C)c(Cl)cc3C)c2)cc1C"
  solubility: "< 4 µM"
- smiles.structure: "Cc1cc(S(=O)(=O)Nc2cccc(-c3cc(C)c(C(=O)N(C)[C@@H](C)C(=O)OCCN(C)C)c(C)c3)c2)c(C)cc1Cl"
  solubility: "15 µM"
- smiles.structure: "CCOC(=O)[C@H](CCN(C)C)N(C)C(=O)c1c(C)cc(-c2cccc(NS(=O)(=O)c3cc(C)c(Cl)cc3C)c2)cc1C"
  solubility: "< 4 µM"
